System: SR
Experiment: NCI tumour cell line growth inhibition, 48 h
Activity calls are given as the source filed them. Cut-off read from the data, not from the text of the source: active = GI50 up to about 1.1 µM and inactive = higher.
Outcomes: active, inactive

MOLECULE | CAT
c1c2c(cc3c1OCO3)-c1cc3ccc4c(c3c[n+]1CC2)OCO4 [COPTISINE CHLORIDE] | active
O=C(Nc1noc(-c2ccccc2)n1)c1ccccc1CNc1noc(-c2ccccc2)n1 | inactive
O=C(Cc1ccccc1)NN1C(=O)C(Cl)C1c1ccccc1 (centres undefined) | inactive
CCN(CC)C(=O)COc1cc2c(O)c3c(O)c(C)c4c(c13)C(=O)C(C)(OC=CC(OC)C(C)C(OC(C)=O)C(C)C(O)C(C)C(O)C(C)C=CC=C(C)C(=O)N2)O4 (centres undefined) | inactive
CC1=Nc2sc3c(c2C2=NCCN12)CCCC3 | inactive
CC(=O)Nc1ccc(COC(O)CN2CCCCC2)cc1[N+](=O)[O-] (centres undefined) | inactive
O=C1c2ccccc2C(=O)N1n1c(Cc2ccccc2)n[nH]c1=O | inactive
O=C(CCc1ccc(O)c(O)c1)NCCc1cc(O)cc(OCc2ccccc2)c1 | inactive
CNC(=O)/C(=C/c1ccc(OC)cc1)c1cc(OC)c(OC)c(OC)c1 | active

---

Tested on: SF-539
Assay: NCI tumour cell line growth inhibition, 48 h
The source made the active and inactive calls. Cut-off read from the data, not from the text of the source: active = GI50 up to about 1.1 µM and inactive = higher.
Outcome codes: active, inactive

COMPOUND | SYSTEM_NAME | CAT
c1ccc2c(Nc3ncco3)cccc2c1 | SF-539 | inactive
Cc1c2ccccc2c(C)n2c1nc1cc3ccccc3cc12 | SF-539 | inactive
O=C1C2CCCCC2C(=O)N1n1c(-c2ccccc2)n[nH]c1=O (stereo not drawn) | SF-539 | inactive
CC1=C(C(=O)CC(=O)C(=O)Nc2ccccc2)Sc2ccccc2N1 | SF-539 | inactive
O=C1c2ccccc2-c2nc(-c3ccncc3)cc3c2c1nc1ccccc13 | SF-539 | inactive
O=c1[nH]c(=O)n(C2OC(CO)C(O)C2O)cc1OCc1ccccc1 (stereo not drawn) | SF-539 | inactive
O=C(C(=O)c1cc2ccccc2[nH]1)c1cc2ccccc2[nH]1 | SF-539 | inactive
c1ccc(NN=C(c2ccccn2)c2ccccn2)nc1 | SF-539 | inactive
CN1CCN(CCNc2ccc(CO)c3sc4ccccc4c(=O)c23)CC1 | SF-539 | inactive
O=C(Cc1ccccc1)N/N=C(/c1nc2ccc([N+](=O)[O-])cc2nc1O)C(O)c1ccco1 (stereo not drawn) | SF-539 | inactive
CC1C(O)=C(O)c2ccccc2N1O (stereo not drawn) | SF-539 | inactive
O=C1NC(N2CCCCC2)=N/C1=C\c1ccc(Cl)cc1 | SF-539 | inactive
CCN(CC)C1CCC(C2c3cc4c(cc3OC(N3CCOCC3)C2C)OCO4)CC1 (stereo not drawn) | SF-539 | inactive
CC1=C2CC(C)(C)/C=C\C(=O)/C(C)=C\C3=C[C@H](C)C[C@]3(O2)C1=O | SF-539 | active
CCOC1CN=C(Nc2cccc3ccccc23)S1 (stereo not drawn) | SF-539 | inactive
COc1cc2c(NCCN(C)C)nc3c4cc5c(cc4ccc3c2cc1OC)OCO5 | SF-539 | inactive
CC(C)(C)c1cc(Oc2ccc(C#N)c(C#N)c2)cc(C(C)(C)C)c1 | SF-539 | inactive
Cc1c2ccccc2nc2[nH]c3ccncc3c12 | SF-539 | inactive
O=CNc1ccc2c(c1)C(=O)c1ccccc1-2 | SF-539 | inactive
O=c1c(-c2ccccc2)c(SCCCN2CCN(c3cccc(Cl)c3)CC2)n(-c2ccccc2)c(=S)n1-c1ccccc1 | SF-539 | inactive
C/C(=N\NC(=S)N1CCC(N2CCCCC2)CC1)c1ccccn1 | SF-539 | inactive
O=c1[nH]c(=S)[nH]c(-c2ccccc2)c1Cc1c(O)ccc2ccccc12 | SF-539 | inactive
CCCCCCCCCCCC1CCCC(C)N1 (stereo not drawn) | SF-539 | inactive
O=C(CO[N+](=O)[O-])OCC(=O)c1ccccc1 | SF-539 | inactive
CCC(O)(Cc1ccc(OC)cc1)c1ccc(OC)cc1 (stereo not drawn) | SF-539 | inactive
O/N=C/C1C(OCc2ccccc2)C(OCc2ccccc2)C(OCc2ccccc2)CN1Cc1ccccc1 (stereo not drawn) | SF-539 | inactive
CCCCCCCCCCCCCCCCNCCCN(C)CCCN | SF-539 | inactive
COC(=O)c1cc2c3c(ccc2[nH]1)N(C(=O)c1cc2cc(OC)c(OC)c(OC)c2[nH]1)CC3CCl (stereo not drawn) | SF-539 | inactive
CCOc1cc2c(cc1O)C(N)C[C@@H]1[C@@H]2CC[C@]2(C)[C@@H](O)CC[C@@H]12 (stereo partly drawn) | SF-539 | inactive
Cn1c2c(c3ccccc31)C1CCCCC1C1C(=O)NC(=O)C21 (stereo not drawn) | SF-539 | inactive
CCOC(=O)c1sc2nc(SC)nc(Nc3ccc4c(c3)OCCCO4)c2c1N | SF-539 | inactive
N=c1oc2ccccc2cc1-c1nc2ccccc2c(=O)[nH]1 | SF-539 | inactive
CN(C)CCCSc1c2ccccc2nc2cc(NCC(=O)Nc3ccccc3-c3ccccc3NC(=O)CNc3ccc4c(SCCCN(C)C)c5ccccc5nc4c3)ccc12 | SF-539 | inactive
Cc1ccc(/C=C2\NC(=S)NC2=O)cc1 | SF-539 | inactive
Cc1nc2cc([N+](=O)[O-])ccc2c(NCCCN(C)C)c1C | SF-539 | inactive
CCCCCCCCCCOc1ccc(/N=N/c2nnc(-c3ccc(OCCCCC)cc3)s2)cc1 | SF-539 | inactive
CC(=O)NC1C(OCc2ccccc2)OC(CO)C(O)C1OCC(=O)N1CCCC1C(=O)N[C@@H](CCC(=O)NCCNCCNc1c2ccccc2nc2cccc([N+](=O)[O-])c12)C(N)=O (stereo partly drawn) | SF-539 | inactive
CCCCCCCCCCCCCCCCCc1cccc(OCOCCOC)c1CO | SF-539 | inactive
Cc1c2ccccc2c(C)n2c1nc1ccccc12 | SF-539 | inactive
Cc1nc2ccccc2c(=O)n1/N=C(\N=N\c1cccc(Cl)c1)c1ccccc1Cl | SF-539 | inactive
O=C(NCCO)c1ccc([N+](=O)[O-])cc1 | SF-539 | inactive
O=C1Nc2cc(Cl)ccc2N=CC1NC(=O)C(c1ccccc1)c1ccccc1Cl (stereo not drawn) | SF-539 | inactive
CCOC(=O)C(NC(=O)c1ccccc1)(Nc1ccc(S(=O)(=O)Nc2cc(C)on2)cc1)C(F)(F)F (stereo not drawn) | SF-539 | inactive
